Target: Dopamine D4 (Homo sapiens)
Sequence (P21917 1-419): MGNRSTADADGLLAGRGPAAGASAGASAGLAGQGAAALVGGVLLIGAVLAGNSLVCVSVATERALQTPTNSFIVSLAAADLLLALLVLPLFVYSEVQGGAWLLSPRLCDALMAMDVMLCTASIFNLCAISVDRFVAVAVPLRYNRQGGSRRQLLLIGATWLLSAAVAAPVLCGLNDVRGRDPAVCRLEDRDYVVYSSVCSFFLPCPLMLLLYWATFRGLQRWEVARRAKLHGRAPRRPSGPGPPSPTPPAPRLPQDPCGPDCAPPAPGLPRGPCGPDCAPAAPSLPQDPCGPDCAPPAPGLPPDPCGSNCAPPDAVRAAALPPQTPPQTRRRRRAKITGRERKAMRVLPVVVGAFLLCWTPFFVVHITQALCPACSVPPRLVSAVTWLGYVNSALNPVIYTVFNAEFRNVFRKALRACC
measurement_type: IC50

The recorded IC50 with Dopamine D4 (Homo sapiens) for CC[C@@H](CO)NC(=O)[C@@H]1C=C2c3cccc4[nH]c(C(F)(F)F)c(c34)C[C@H]2N(C)C1 [2-CF3-sergide] was > 1000 nM

---

Molecular target: Adrenergic α1D (Homo sapiens)
Sequence (P25100 whole entry): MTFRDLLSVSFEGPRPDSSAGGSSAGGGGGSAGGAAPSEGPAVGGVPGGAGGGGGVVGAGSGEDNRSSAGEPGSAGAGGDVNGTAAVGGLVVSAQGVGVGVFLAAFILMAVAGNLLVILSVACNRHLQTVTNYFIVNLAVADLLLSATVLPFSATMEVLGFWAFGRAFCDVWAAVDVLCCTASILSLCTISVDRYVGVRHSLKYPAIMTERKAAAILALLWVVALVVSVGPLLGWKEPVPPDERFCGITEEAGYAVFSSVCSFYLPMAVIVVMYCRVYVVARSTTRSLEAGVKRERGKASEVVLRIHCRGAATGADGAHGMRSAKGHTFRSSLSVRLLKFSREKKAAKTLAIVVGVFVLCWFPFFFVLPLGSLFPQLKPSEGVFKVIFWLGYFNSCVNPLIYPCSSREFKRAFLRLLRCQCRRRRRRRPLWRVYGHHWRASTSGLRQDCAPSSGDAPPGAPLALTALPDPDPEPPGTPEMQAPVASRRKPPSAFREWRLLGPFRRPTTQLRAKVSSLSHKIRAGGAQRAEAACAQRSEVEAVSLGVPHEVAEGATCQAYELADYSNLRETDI
Assay: Aequorin agonist/antagonist assay, adrenergic α1D
Details: CHO-K1 mAeq, human receptor, antagonist mode; read-out: Activity (Antagonism: IC50), Adrenergic a1D
measurement_type: pIC50
Just the number, please; pIC50 means minus log10 of the concentration in mol/L.

Lab book: pIC50 of CC[C@@H](CO)NC(=O)[C@@H]1C=C2c3cccc4[nH]c(C(F)(F)F)c(c34)C[C@H]2N(C)C1 [2-CF3-sergide] noted as 7.42

---

Target: mGlu7 (Homo sapiens)
Sequence (Q14831 35-915): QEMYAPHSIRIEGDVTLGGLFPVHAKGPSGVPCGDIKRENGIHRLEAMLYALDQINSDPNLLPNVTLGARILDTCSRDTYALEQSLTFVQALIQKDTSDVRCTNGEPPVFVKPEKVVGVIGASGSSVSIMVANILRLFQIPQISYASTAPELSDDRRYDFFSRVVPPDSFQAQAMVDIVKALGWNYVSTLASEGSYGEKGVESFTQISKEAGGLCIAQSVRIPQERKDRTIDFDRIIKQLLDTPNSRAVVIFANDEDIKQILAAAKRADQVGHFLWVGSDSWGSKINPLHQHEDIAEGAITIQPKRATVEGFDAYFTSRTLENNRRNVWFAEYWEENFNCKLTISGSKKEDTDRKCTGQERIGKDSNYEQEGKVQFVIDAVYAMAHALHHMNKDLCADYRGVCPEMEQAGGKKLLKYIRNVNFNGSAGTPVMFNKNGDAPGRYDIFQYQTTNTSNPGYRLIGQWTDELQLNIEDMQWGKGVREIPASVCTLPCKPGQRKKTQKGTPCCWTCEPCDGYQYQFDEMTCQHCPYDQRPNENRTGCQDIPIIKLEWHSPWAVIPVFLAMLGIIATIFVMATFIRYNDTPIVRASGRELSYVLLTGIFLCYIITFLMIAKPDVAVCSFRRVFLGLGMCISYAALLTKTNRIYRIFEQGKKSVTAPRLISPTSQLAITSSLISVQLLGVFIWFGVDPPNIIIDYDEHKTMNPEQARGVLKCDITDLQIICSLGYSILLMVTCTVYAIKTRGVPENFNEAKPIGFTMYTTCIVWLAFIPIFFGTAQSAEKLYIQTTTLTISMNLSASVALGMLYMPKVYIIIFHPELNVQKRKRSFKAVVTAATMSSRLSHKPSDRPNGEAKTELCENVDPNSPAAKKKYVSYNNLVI
Assay: cAMP HTRF assay, mGluR7
Conditions: CHO-K1, human receptor, agonist mode; read-out: Activity (Agonism: EC50), mGlu7
measurement_type: pEC50
Just the number, please; pEC50 means minus log10 of the concentration in mol/L.

Lab book: pEC50 of CC[C@@H](CO)NC(=O)[C@@H]1C=C2c3cccc4[nH]c(C(F)(F)F)c(c34)C[C@H]2N(C)C1 [2-CF3-sergide] noted as 7.33

---

Target: Dopamine D1 (Homo sapiens, UniProt P21728)
Sequence (P21728 whole entry): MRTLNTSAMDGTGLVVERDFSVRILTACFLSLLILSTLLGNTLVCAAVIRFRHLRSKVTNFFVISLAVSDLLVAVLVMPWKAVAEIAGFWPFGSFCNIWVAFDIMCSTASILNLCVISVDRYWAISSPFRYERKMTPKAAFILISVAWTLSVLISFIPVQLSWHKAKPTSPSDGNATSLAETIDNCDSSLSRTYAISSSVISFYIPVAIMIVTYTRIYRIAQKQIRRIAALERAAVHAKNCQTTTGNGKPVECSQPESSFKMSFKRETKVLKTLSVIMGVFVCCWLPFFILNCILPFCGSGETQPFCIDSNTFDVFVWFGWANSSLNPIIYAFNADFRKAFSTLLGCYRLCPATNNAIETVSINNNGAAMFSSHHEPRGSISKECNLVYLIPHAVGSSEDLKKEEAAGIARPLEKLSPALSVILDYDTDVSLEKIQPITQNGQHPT
Experiment: cAMP HTRF assay, dopamine D1
Details: CHO-K1, human receptor, agonist mode; read-out: Activity (Agonism: EC50), D1
Method: Receptor agonist/[…] assays were performed using 2-CF3-sergide. Table 1 summarizes the cell lines (CHO-K1/HEK293 transfected with relevant human receptor) and the assays performed to detect any agonist or antagonist activity. cAMP HTRF (Gs) studies were conducted to monitor activity for 8′OH-2CF3-dihydroergotamine (8′OH-2CF3-DHE) against the receptors indicated in Table 1 above. […]
measurement_type: pEC50
Just the number, please; pEC50 means minus log10 of the concentration in mol/L.

Lab book: pEC50 of CC[C@@H](CO)NC(=O)[C@@H]1C=C2c3cccc4[nH]c(C(F)(F)F)c(c34)C[C@H]2N(C)C1 [2-CF3-sergide] noted as 6.59

---

Target: Serotonin 5-HT1D (Homo sapiens)
Sequence (P28221 whole entry): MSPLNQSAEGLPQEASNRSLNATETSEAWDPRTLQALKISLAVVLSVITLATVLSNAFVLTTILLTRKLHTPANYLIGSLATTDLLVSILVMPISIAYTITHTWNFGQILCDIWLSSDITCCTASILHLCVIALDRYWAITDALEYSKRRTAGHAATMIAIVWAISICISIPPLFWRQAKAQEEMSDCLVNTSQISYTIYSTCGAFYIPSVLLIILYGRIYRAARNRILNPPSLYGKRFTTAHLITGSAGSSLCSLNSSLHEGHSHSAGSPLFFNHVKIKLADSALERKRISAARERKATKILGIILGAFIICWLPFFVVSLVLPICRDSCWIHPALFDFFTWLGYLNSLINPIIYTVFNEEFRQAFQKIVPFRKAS
Experiment: GTPγ[35S] assay, serotonin 5-HT1D
Settings: CHO-K1 human receptor membranes, agonist mode; read-out: Activity (Agonism: EC50), 5-HT1D
measurement_type: pEC50
Just the number, please; pEC50 means minus log10 of the concentration in mol/L.

Lab book: pEC50 of CC[C@@H](CO)NC(=O)[C@@H]1C=C2c3cccc4[nH]c(C(F)(F)F)c(c34)C[C@H]2N(C)C1 [2-CF3-sergide] noted as 7.01
